- target.or.test.system: Polyketide synthase Pks13 (Mycobacterium tuberculosis (strain ATCC 25618 / H37Rv))
- method.summary: Mycobacterium tuberculosis Polyketide synthase 13 Thioesterase (PKS13)
- Type: functional
- Parameters: scale not given: in the data most compounds retested in dose-response had high values
- condition.set: 30 µM
Out of some 67,000 compounds screened, about 300 (0.45%) showed an effect of 50% or more. The list comes from a sample in which strong results are over-represented; it also holds close analogues and randomly drawn compounds.
Recorded Percent Effect split into classes lower level (below -20%), middle level (-20% to below 20%), upper level (20% or more)

Prompt line: Dear colleague, I would appreciate it if you could identify the bin for `CCCc1ccc(CN2CCN(C(=O)CC(C)C)[C@@H]3CS(=O)(=O)C[C@@H]32)o1` and reply at your convenience.
Response line: middle level

Prompt line: Consider next the molecule `O=C1[C@H]2CN(c3ncccn3)C[C@H]2CN1CCN1CCCC1` in the same way.
Response line: middle level

Prompt line: // next record `CNC(=O)c1cnc(/C=C/c2cc(OC)c(OC)c(OC)c2)s1`
Response line: middle level

Prompt line: Here is the next molecule: CC1(C(=O)NCc2cccnc2Oc2ccc(F)cc2F)CCCNC1 (stereo not given)
Response line: middle level

Prompt line: Entry to check: `CCOc1cc(/C=C/c2ncc(C(=O)O)s2)cc(Br)c1OC`
Response line: middle level

Prompt line: Repeat for the following molecule: `CN1C(=O)[C@H]2CC[C@@H]1CN(c1ncnc3ccsc13)C2`
Response line: upper level

Prompt line: Then `CN(CCc1cccs1)C(=O)Nc1ccc2c(c1)C(=O)N(C)CC2` ?
Response line: upper level

Prompt line: Also, `COc1cc(/C=C/c2ncc(C(=O)O)s2)cc(Cl)c1O` please.
Response line: upper level

Prompt line: What would you report for `COc1cc(N2C[C@@H]3CC[C@H](C2)N(CC2CCC2)C3=O)ncn1` ?
Response line: middle level

Prompt line: Then this molecule: `O=C(O)c1csc(S(=O)(=O)Nc2cccc(OC(F)F)c2)c1`
Response line: upper level

Prompt line: Now the same for `CC(C)(C)C(=O)N1CCC(n2nc(-c3ccco3)ccc2=O)CC1`
Response line: upper level

Prompt line: Quick one: `Cc1cc(S(=O)(=O)Nc2cccc(OC(F)F)c2)sc1C(=O)O`
Response line: upper level

Prompt line: Try the molecule `CN(C)C(=O)N1C[C@@H]2CC[C@H](C1)N(C(=O)CCCn1cncn1)C2`
Response line: middle level

Prompt line: Could you do the same for `CCN1C[C@H]2CCN(C(=O)NC3CCCC3)CC[C@H]2S1(=O)=O` , please?
Response line: middle level

Prompt line: Follow-up item: `O=C([C@@H]1COC[C@H]2CN(C3CCOCC3)C[C@H]21)N1CCCCO1`
Response line: middle level

Prompt line: Next entry: `COCCN1C[C@@H]2CN(c3ncccn3)C[C@@H]2C1=O`
Response line: upper level

Prompt line: # repeat for CN(Cc1ccccn1)C1CCC[C@@H]2CN(CC3CC3)C[C@H]12 (stereo not given in full)
Response line: lower level

Prompt line: Repeat with `CN(C)[C@@H]1CN(C(=O)Cc2cccs2)[C@@H]2CCCO[C@H]12`
Response line: middle level

Prompt line: Queued: `CNC(=O)c1cnc(/C=C/c2cc(OC)cc(OC)c2)s1`
Response line: upper level

Prompt line: // query: `Cc1noc([C@H]2C[C@H]3CN(C(=O)Cc4ccsc4)CC[C@H]3O2)n1`
Response line: middle level

Prompt line: Next up: `O=C(COC1CCCC1)N1C[C@@H]2COC[C@]2(COc2cccnc2)C1`
Response line: middle level

Prompt line: For CC(C)CN1C(=O)CO[C@@H]2CN(C(=O)C3CCOC3)C[C@H]21 (stereo not given in full) then?
Response line: middle level

Prompt line: Item: `CCOc1ccc(NS(=O)(=O)c2cc(C)c(C(=O)O)s2)c(C)c1`
Response line: lower level

Prompt line: Try this molecule too: `CCOc1cccc(NS(=O)(=O)c2cc(C)c(C(=O)O)s2)c1`
Response line: upper level

Prompt line: Cool, now `Cc1ccc2nc(-c3cnc(N)nc3)cc(C(=O)N(C)C)c2c1`
Response line: middle level

Prompt line: Next up: `COCCN1C[C@@H]2CN(c3ncc(F)cn3)C[C@@H]2C1=O`
Response line: middle level

Prompt line: How about this molecule: `O=C1OCCN1CC(=O)N1C[C@H]2CC[C@@H]1CN(C(=O)c1ccccn1)C2`
Response line: middle level

Prompt line: Likewise for `Cc1cc(S(=O)(=O)Nc2cccc(I)c2)sc1C(=O)O` ?
Response line: upper level

Prompt line: And then `CN1CCN(Cc2nc3ccccc3[nH]2)[C@H]2CS(=O)(=O)C[C@H]21` , what is it?
Response line: lower level

Prompt line: `CCOc1c(Cl)cc(/C=C/c2ncc(C(=O)O)s2)cc1OC` ?
Response line: upper level

Prompt line: Please answer likewise for `O=C1[C@H]2CC[C@H](CN(c3ncnc4ccsc34)C2)N1CC1CC1`
Response line: upper level

Prompt line: Another: `CN(C)S(=O)(=O)N1C[C@H]2CCC[C@@]2(COCc2cccnc2)C1`
Response line: lower level

Prompt line: Next record, please: `CCOc1ccc(NS(=O)(=O)c2cc(C)c(C(=O)O)s2)cc1F`
Response line: lower level

Prompt line: Likewise for Cc1cnc(N2CCCC(O)C2)nc1-c1ccnn1C (stereo not given) ?
Response line: middle level

Prompt line: Could you do the same for Cc1cccc(C)c1Oc1ncccc1CNC(=O)C1(C)CCCNC1 (stereo not given) , please?
Response line: lower level

Prompt line: // query: `CCOc1c(Cl)cccc1NS(=O)(=O)c1cc(C)c(C(=O)O)s1`
Response line: middle level

Prompt line: Proceed to CCOCC1CN(C(=O)c2cccs2)Cc2cnn(CC3CC3)c21 (stereo not given)
Response line: upper level

Prompt line: Quick one: `c1cncc(CN2CCN3C[C@H](Oc4cncnc4)C[C@H]3C2)c1`
Response line: middle level

Prompt line: Can you check Cn1ncc2c1CN(Cc1cccnc1)CC2COCC1CC1 (stereo not given) next?
Response line: upper level

Prompt line: Then what about the molecule `Cc1ccsc1CN1CC[C@H]2OCC[C@@]2(C(=O)N2CCCO2)C1` ?
Response line: middle level

Prompt line: Next up: `Cc1cnc(N2CCC(c3ccccc3)CC2)nc1-c1ccnn1C`
Response line: lower level

Prompt line: Another: `CN(C)C(=O)c1cc(-c2cnc(N)nc2)nc2cc(F)ccc12`
Response line: middle level

Prompt line: Again, but for `CC(C)N(C)C[C@H]1C[C@@H]2CN(Cc3ccco3)C[C@@H]2O1`
Response line: lower level

Prompt line: Next entry: CCn1ncc2c1C(COCC1CC1)CN(C(=O)c1cccs1)C2 (stereo not given)
Response line: lower level
